Target: T1, BMPRII receptor-Fc fusion (UniProt Q13873 27-151, limits assumed)
T1 construct: BMP receptor-Fc fusion used at 5 ug/mL
T1 sequence (looked up): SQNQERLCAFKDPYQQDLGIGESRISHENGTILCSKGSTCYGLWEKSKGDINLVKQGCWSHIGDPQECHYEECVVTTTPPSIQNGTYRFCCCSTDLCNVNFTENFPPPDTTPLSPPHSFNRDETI
Assay: ELISA-like plate assay, captured BMP-7 from conditioned media, receptor-Fc detection
TEST READOUT: BMPRII binding (relative to wild type = 1.0)

BMP-7 variant I86Q (ligand, In conditioned media; numbering on mature BMP-7) STGGKQRSQNRSKTPKNQEALRMASVAENSSSDQRQACKKHELYVSFRDLGWQDWIIAPEGYAAYYCEGECAFPLNSYMNATNHAQVQTLVHFINPETVPKPCCAPTQLNAISVLYFDDSSNVILKKYRNMVVRACGCH
1.07 relative to wild type
BMP-7 variant F117K (ligand, In conditioned media; numbering on mature BMP-7) STGGKQRSQNRSKTPKNQEALRMASVAENSSSDQRQACKKHELYVSFRDLGWQDWIIAPEGYAAYYCEGECAFPLNSYMNATNHAIVQTLVHFINPETVPKPCCAPTQLNAISVLYKDDSSNVILKKYRNMVVRACGCH
0.2 relative to wild type

API: the following record is the query input.
*Q* Quick one: BMPRII binding (relative to wild type = 1.0) of BMP-7 variant I57L (ligand, In conditioned media; numbering on mature BMP-7) STGGKQRSQNRSKTPKNQEALRMASVAENSSSDQRQACKKHELYVSFRDLGWQDWILAPEGYAAYYCEGECAFPLNSYMNATNHAIVQTLVHFINPETVPKPCCAPTQLNAISVLYFDDSSNVILKKYRNMVVRACGCH ?
*A* 0.4 relative to wild type
